Form: system (UniProtKB Q99523), quantity (Ki), values below.
metric: Ki

compound	value.observed
O=C(O)c1cc(Br)ccc1C(=O)Nc1ccc(Cl)cn1 [Example 20]	0.943 µM
Cc1ccc(NC(=O)c2ccc(Br)cc2C(=O)O)nc1C [Example 23]	0.543 µM
C=C(C)c1ccc(C(=O)Nc2cccc(C)n2)c(C(=O)O)c1 [Example 42]	4.95 µM
O=C(O)c1cc(Br)ccc1C(=O)Nc1ccc2ccccc2n1 [Example 29, 5-Bromo-N-quinolin-2-yl-phthalamic acid]	1.24 µM
O=C(O)c1cc(C(F)(F)F)ccc1C(=O)Nc1ccc2c(n1)CCCC2 [Example 46]	0.084 µM
Cc1ccc(NC(=O)c2ccc(C(F)(F)F)cc2C(=O)O)nc1C [Example 7]	0.162 µM
O=C(O)c1cc(C(F)(F)F)ccc1C(=O)NCc1cccnc1 [Example 40]	4.57 µM
Cc1csc(NC(=O)c2ccc(Br)cc2C(=O)O)n1 [Example 28]	3.43 µM
Cc1ncc(NC(=O)c2ccc(C(F)(F)F)cc2C(=O)O)nc1C [Example 18]	0.229 µM
Cc1cc(NC(=O)c2ccc(Br)cc2C(=O)O)ccn1 [Example 25]	1.71 µM
Cc1ccnc(NC(=O)c2ccc(C(F)(F)F)cc2C(=O)O)c1 [Example 8]	0.952 µM
Cc1nccc(NC(=O)c2ccc(Br)cc2C(=O)O)n1 [Example 34]	0.467 µM
Cc1ccc(C(=O)Nc2cccc(C)n2)c(C(=O)O)c1 [Example 3]	6.09 µM
Cc1cccc(NC(=O)c2ccc(Cl)c(F)c2C(=O)O)n1 [Example 14]	4 µM
O=C(O)c1cc(Br)ccc1C(=O)Nc1cccnc1 [Example 26]	5.24 µM
COc1cc(NC(=O)c2ccc(C(F)(F)F)cc2C(=O)O)ccn1 [Example 36]	0.714 µM
Cc1cnc(NC(=O)c2ccc(C(F)(F)F)cc2C(=O)O)nc1C [Example 45]	0.19 µM
Cc1ccnc(NC(=O)c2ccc(Br)cc2C(=O)O)c1 [Example 24]	2.29 µM

###

Biological target: mSortilin (Mus musculus (Mouse), UniProt Q6PHU5)
Sequence (Q6PHU5 74-825): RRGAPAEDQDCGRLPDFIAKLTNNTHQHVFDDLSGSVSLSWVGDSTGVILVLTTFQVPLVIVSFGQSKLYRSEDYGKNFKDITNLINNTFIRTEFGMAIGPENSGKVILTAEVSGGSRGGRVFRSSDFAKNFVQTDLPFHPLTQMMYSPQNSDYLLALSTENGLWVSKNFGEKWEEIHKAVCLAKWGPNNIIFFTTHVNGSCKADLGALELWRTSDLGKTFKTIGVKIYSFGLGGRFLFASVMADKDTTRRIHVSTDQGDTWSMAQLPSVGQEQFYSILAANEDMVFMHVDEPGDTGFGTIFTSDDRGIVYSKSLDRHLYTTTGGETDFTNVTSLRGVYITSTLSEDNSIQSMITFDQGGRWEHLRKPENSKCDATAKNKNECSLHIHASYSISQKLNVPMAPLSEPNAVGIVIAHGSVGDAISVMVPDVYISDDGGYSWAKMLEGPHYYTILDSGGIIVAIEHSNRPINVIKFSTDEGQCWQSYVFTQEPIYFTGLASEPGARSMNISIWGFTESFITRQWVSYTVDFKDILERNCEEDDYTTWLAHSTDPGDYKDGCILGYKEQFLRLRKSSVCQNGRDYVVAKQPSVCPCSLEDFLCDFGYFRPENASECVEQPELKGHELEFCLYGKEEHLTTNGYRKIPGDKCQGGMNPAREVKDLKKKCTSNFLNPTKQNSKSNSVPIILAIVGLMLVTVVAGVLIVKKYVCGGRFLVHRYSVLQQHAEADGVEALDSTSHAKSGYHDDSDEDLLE
metric: Ki

structure.smiles.string	metric	value.observed
Cc1cccc(NC(=O)c2ccc(C(F)(F)F)cc2C(=O)O)n1	Ki	210 nM

###

Form: system (hSortilin (Homo sapiens (Human))), quantity (pIC50), values below.
pIC50: −log10 of the molar value.

compound	pIC50
O=C(O)c1cc(Br)ccc1C(=O)Nc1ccccn1 [Example 21, 5-Bromo-N-pyridin-2-yl-phthalamic acid]	5.44
Cc1ccc(C(=O)Nc2cccc(C)n2)c(C(=O)O)c1 [Example 3]	5.19
Cc1cnc(NC(=O)c2ccc(C(F)(F)F)cc2C(=O)O)nc1C [Example 45]	6.70
O=C(O)c1cc(Br)ccc1C(=O)Nc1cccc(Cl)n1 [Example 22]	5.80
Cc1csc(NC(=O)c2ccc(Br)cc2C(=O)O)n1 [Example 28]	5.44
Cc1cccc(NC(=O)c2cc(C(F)(F)F)c(C(F)(F)F)cc2C(=O)O)n1 [Example 47]	5.92
O=C(O)c1cc(Br)ccc1C(=O)Nc1ccc2ccccc2n1 [Example 29, 5-Bromo-N-quinolin-2-yl-phthalamic acid]	5.89
O=C(O)c1cc(Br)ccc1C(=O)Nc1ccc(Cl)cn1 [Example 20]	6.00
Cc1ccc(NC(=O)c2ccc(Br)cc2C(=O)O)nc1C [Example 23]	6.24
Cc1cc(NC(=O)c2ccc(Br)cc2C(=O)O)ccn1 [Example 25]	5.74
Cc1nccc(NC(=O)c2ccc(Br)cc2C(=O)O)n1 [Example 34]	6.31
O=C(O)c1cc(C(F)(F)F)ccc1C(=O)NCc1ccncc1 [Example 39]	5.12
Cc1cccc(NC(=O)c2ccc(Br)cc2C(=O)O)n1 [Example 2]	5.92
O=C(O)c1cc(C(F)(F)F)ccc1C(=O)Nc1ccc2c(n1)CCCC2 [Example 46]	7.06
Cc1ccc(NC(=O)c2ccc(C(F)(F)F)cc2C(=O)O)nc1C [Example 7]	6.77
O=C(O)c1cc(Br)ccc1C(=O)Nc1cccnc1 [Example 26]	5.26
Cc1cc(NC(=O)c2ccc(C(F)(F)F)cc2C(=O)O)cc(C)n1 [Example 51]	6.19
N#Cc1c(NC(=O)c2ccc(Br)cc2C(=O)O)sc2c1CCCC2 [Example 6]	5.40
Cc1ccc(NC(=O)c2ccc(Br)cc2C(=O)O)nc1 [Example 19]	5.77
Cc1cc(NC(=O)c2ccc(Br)cc2C(=O)O)ncn1 [Example 35]	5.70
Cc1cccc(NC(=O)c2ccc(C(C)C)cc2C(=O)O)n1 [Example 43]	5.96

###

Biological target: UniProt:Q6PHU5
pIC50: −log10 of the molar value.

compound	pIC50
Cc1cccc(NC(=O)c2ccc(C(F)(F)F)cc2C(=O)O)n1 [Example 1]	6.66
